# target desc: Bcl-2 protein (Recombinant Human Bcl-2 Protein) (Homo sapiens)
# Construct: purchased Novus NBP2-34889
# experimental protocol: Binding evaluation of mixture library compounds to Bcl-2 using AS-MS (affinity selection mass spectrometry)
# applied conditions: n = 2
Provide the reported ASMS ratio (%) of each item.
Provide the reading as a plain figure in %.

Sample CCOc1cccc(-c2ccc(C(=O)N3CCN(c4ccc(C(=O)NS(=O)(=O)C(C)(C)C)nn4)CC3)cc2C)c1 [B2L003-01] ; ASMS ratio (%) observed: 0.0

// ASMS ratio (%) lookup, compound = CCOc1cccc(-c2ccc(CN3CCN(c4ccc(C(=O)NS(=O)(=O)CCC(F)(F)F)nn4)CC3)c3ccccc23)c1 [B2N091-01] , result: 0.0

Entry CCOc1cccc(-c2cc(CN3CCN(c4ccc(C(=O)NS(=O)(=O)CCC(F)(F)F)cc4)CC3)cc(OC(F)(F)F)c2)c1 [B2N063-01] ; ASMS ratio (%) = −3.8

For reference, reported ASMS ratio (%) for CCOc1cncc(-c2ccc(C(=O)N3CCN(c4ccc(C(=O)NS(=O)(=O)c5ccc(NCCSc6ccccc6)c(C(F)(F)F)c5)cc4)CC3)c3ccccc23)c1 [B2R036-01] stands at −0.8

// CCOc1cncc(-c2cc(CN3CCN(c4ccc(C(=O)NS(=O)(=O)CCC(F)(F)F)cc4)CC3)cc(OC(F)(F)F)c2)c1 [B2N064-01] : ASMS ratio (%) value = 0.0

For reference, reported ASMS ratio (%) for CCOc1cccc(-c2ccccc2CN2CCN(c3ccc(C(=O)NS(=O)(=O)c4ccc(NCCSc5ccccc5)c(C(F)(F)F)c4)cc3)CC2)c1 [B2R045-01] stands at −3.4

For CCOc1cncc(-c2ccc(CN3CCN(c4ccc(C(=O)NS(C)(=O)=O)cc4)CC3)c(OC)c2)c1 [B2I054-01] the compound record lists ASMS ratio (%) as 0.0

The compound listed as CCOc1cncc(-c2ccc(CN3CCN(c4ccc(C(=O)NS(C)(=O)=O)nn4)CC3)cc2F)c1 [B2I078-01] shows ASMS ratio (%) equal to 0.0

Lab book: ASMS ratio (%) of CCOc1cncc(-c2csc(CN3CCN(c4ccc(C(=O)NS(C)(=O)=O)cc4)CC3)c2)c1 [B2I068-01] noted as 0.0

Lab note: measured ASMS ratio (%) of CCOc1cccc(-c2cc(CN3CCN(c4ccc(C(=O)NS(=O)(=O)CCC(F)(F)F)cc4)CC3)cc(OCC)c2)c1 [B2N055-01] was 0.0

The recorded ASMS ratio (%) for entry CCOc1cncc(-c2ccccc2CCC(=O)N2CCN(c3ccc(C(=O)NS(=O)(=O)CCC(F)(F)F)nn3)CC2)c1 [B2N012-01] equals 0.0

Lab note: measured ASMS ratio (%) of CCOc1cncc(-c2ccc(CN3CCN(c4ccc(C(=O)NS(=O)(=O)C(C)(C)C)cc4)CC3)cc2C)c1 [B2L048-01] was −5.0

// ASMS ratio (%) value for CCOc1cccc(-c2ccc(C(C)N3CCN(c4ccc(C(=O)NS(C)(=O)=O)cc4)CC3)c(F)c2)c1 (centres unmarked) [B2I099-01] : 0.0

The value of ASMS ratio (%) measured for the compound CCOc1cccc(C#Cc2ccccc2CN2CCN(c3ccc(C(=O)NS(=O)(=O)c4ccc(NCCSc5ccccc5)c(C(F)(F)F)c4)nn3)CC2)c1 [B2R095-01] turned out to be 5.5

Value of measured ASMS ratio (%) for the entry CCOc1cncc(-c2ccc(CN3CCN(c4ccc(C(=O)NS(=O)(=O)C(C)(C)C)cc4)CC3)c(CC)c2)c1 [B2L050-01] : 0.0

Value of ASMS ratio (%) reported for the compound CCOc1cccc(-c2cc(CN3CCN(c4ccc(C(=O)NS(=O)(=O)CCC(F)(F)F)nn4)CC3)cc(OCC)c2)c1 [B2N081-01] is 0.0

get_value(item= CCOc1cccc(-c2ccccc2CN2CCN(c3ccc(C(=O)NS(=O)(=O)C(C)(C)C)cc3)CC2)c1 [B2L045-01] , readout=ASMS ratio (%)) returns 0.0

// field: ASMS ratio (%); key: CCOc1cccc(-c2cnn(-c3cc(C(=O)N4CCN(c5ccc(C(=O)NS(=O)(=O)CCC(F)(F)F)nn5)CC4)cc(C(F)(F)F)c3)c2)c1 [B2N021-01] ; value = 0.0

Lookup result for CCOc1cccc(-c2cc(C(=O)N3CCN(c4ccc(C(=O)NS(=O)(=O)C(C)(C)C)cc4)CC3)cc(C(F)(F)F)c2)c1 [B2L039-01] ; measured ASMS ratio (%): 0.0

Briefly, ASMS ratio (%) measured for CCOc1cncc(-c2cc(OC)c(CN3CCN(c4ccc(C(=O)NS(=O)(=O)CCC(F)(F)F)nn4)CC3)c(OC)c2)c1 [B2N086-01] : 0.0

compound CCOc1cccc(-c2ccc(CN3CCN(c4ccc(C(=O)NS(=O)(=O)c5ccc(NCCSc6ccccc6)c(C(F)(F)F)c5)nn4)CC3)cc2C)c1 [B2R073-01] , ASMS ratio (%) observed: 0.0

// ASMS ratio (%) value for CCOc1cncc(-c2cc(CN3CCN(c4ccc(C(=O)NS(=O)(=O)c5ccc(NCCSc6ccccc6)c(C(F)(F)F)c5)nn4)CC3)cc(OC(F)(F)F)c2)c1 [B2R090-01] : 5.3

Form: compound = CCOc1cccc(-c2ccc(CN3CCN(c4ccc(C(=O)NS(=O)(=O)CCC(F)(F)F)cc4)CC3)c(OC)c2)c1 [B2N053-01] ; ASMS ratio (%) = 1.4

Query CCOc1cccc(-c2csc(C(=O)N3CCN(c4ccc(C(=O)NS(=O)(=O)CCC(F)(F)F)nn4)CC3)c2)c1 [B2N001-01] yields ASMS ratio (%) of 0.0

// sample CCOc1cccc(-c2cc(CN3CCN(c4ccc(C(=O)NS(C)(=O)=O)cc4)CC3)cc(OCC)c2)c1 [B2I055-01] , its ASMS ratio (%) was 0.0

In plain terms, CCOc1cccc(-c2cc(C(=O)N3CCN(c4ccc(C(=O)NS(=O)(=O)c5ccc(NCCSc6ccccc6)c(C(F)(F)F)c5)nn4)CC3)cc(C(C)(C)C)c2)c1 [B2R015-01] has a documented ASMS ratio (%) of 0.0

* * *

For each entry below, report its ASMS ratio (%) n = 1 value.
# target desc: Bcl-2 protein (Recombinant Human Bcl-2 Protein) (Homo sapiens, UniProt P10415)
# Construct: purchased Novus NBP2-34889
# Sequence (P10415 whole entry): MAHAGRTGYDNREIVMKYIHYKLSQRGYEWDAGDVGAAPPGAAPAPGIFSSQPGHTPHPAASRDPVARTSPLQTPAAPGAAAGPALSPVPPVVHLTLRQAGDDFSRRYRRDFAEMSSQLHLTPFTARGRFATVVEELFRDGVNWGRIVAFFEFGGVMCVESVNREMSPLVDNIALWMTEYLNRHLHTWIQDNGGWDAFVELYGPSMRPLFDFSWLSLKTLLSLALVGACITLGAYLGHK
# experimental protocol: Binding evaluation of mixture library compounds to Bcl-2 using AS-MS (affinity selection mass spectrometry)
# applied conditions: AS-MS, mixture library, Bcl-2; replicate n = 1; ASMS Ratio(%)=(A−C)/B×100
Report as a plain number; the unit % is understood.

Recorded result, CCOc1cccc(-c2ccc(C(=O)N3CCN(c4ccc(C(=O)NS(=O)(=O)c5ccc(NCCSc6ccccc6)c([N+](=O)[O-])c5)nn4)CC3)c3ccccc23)c1 [B2Q013-01] , ASMS ratio (%) n = 1: 0.0

For this compound ( CCOc1cccc(C#Cc2ccccc2C(=O)N2CCN(c3ccc(C(=O)NS(C)(=O)=O)cc3)CC2)c1 [B2I029-01] ), measured ASMS ratio (%) n = 1 is 0.0

The recorded ASMS ratio (%) n = 1 for CCOc1cncc(-c2cc(CN3CCN(c4ccc(C(=O)NS(=O)(=O)CC56CC7CC(CC(C7)C5)C6)cc4)CC3)cc(C(F)(F)F)c2)c1 [B2A062-01] is −5.2

Measured ASMS ratio (%) n = 1 of CCOc1cncc(-c2cc(OC)c(CN3CCN(c4ccc(C(=O)NS(=O)(=O)CC56CC7CC(CC(C7)C5)C6)nn4)CC3)c(OC)c2)c1 [B2A086-01] : 0.0

Summary for this compound, CCOc1cccc(-c2cc(C(=O)N3CCN(c4ccc(C(=O)NS(C)(=O)=O)nn4)CC3)cc(C(C)(C)C)c2)c1 [B2I015-01] : ASMS ratio (%) n = 1 is 0.0

So for CCOc1cncc(-c2csc(C(=O)N3CCN(c4ccc(C(=O)NS(=O)(=O)CC56CC7CC(CC(C7)C5)C6)nn4)CC3)c2)c1 [B2A002-01] , the logged ASMS ratio (%) n = 1 turned out to be 0.0

* * *

Would you mind telling me the reported ASMS ratio (%) of each entry?
# target desc: Bcl-2 protein (Recombinant Human Bcl-2 Protein) (Homo sapiens, UniProt P10415)
# Construct: purchased Novus NBP2-34889
# experimental protocol: Binding evaluation of mixture library compounds to Bcl-2 using AS-MS (affinity selection mass spectrometry)
# applied conditions: n = 1
Number only, in %; omit the unit.

The reported value for CCOc1cncc(-c2cc(CN3CCN(c4ccc(C(=O)NS(=O)(=O)CCC(F)(F)F)nn4)CC3)cc(OCC)c2)c1 in terms of ASMS ratio (%) is 2.5

So, CCOc1cccc(C#Cc2ccccc2CN2CCN(c3ccc(C(=O)NS(=O)(=O)c4ccc(NCCSc5ccccc5)c(C(F)(F)F)c4)cc3)CC2)c1 ? Its ASMS ratio (%) was 12.3

Just so you know, measured ASMS ratio (%) for CCOc1cncc(-c2ccc(C(C)N3CCN(c4ccc(C(=O)NS(C)(=O)=O)cc4)CC3)cc2)c1 (centres unmarked) came out at 0.0

response.value for CCOc1cccc(-c2ccccc2CCC(=O)N2CCN(c3ccc(C(=O)NS(=O)(=O)C(C)(C)C)nn3)CC2)c1 (field: ASMS ratio (%)) = 0.0

# compound CCOc1cncc(-c2ccccc2CN2CCN(c3ccc(C(=O)NS(=O)(=O)CCC(F)(F)F)nn3)CC2)c1 ; its ASMS ratio (%) = 0.0

Input CCOc1cncc(-c2ccc(CN3CCN(c4ccc(C(=O)NS(=O)(=O)c5ccc(NCCSc6ccccc6)c(C(F)(F)F)c5)nn4)CC3)c(CC)c2)c1 . Output ASMS ratio (%): 3.9

CCOc1cncc(-c2ccc(CN3CCN(c4ccc(C(=O)NS(C)(=O)=O)nn4)CC3)cc2F)c1 has a reported ASMS ratio (%) of 0.0

Lab note: CCOc1cncc(C#Cc2cc(C(=O)N3CCN(c4ccc(C(=O)NS(=O)(=O)C(C)(C)C)nn4)CC3)cc(C(F)(F)F)c2)c1 gave ASMS ratio (%) of 0.0

// sample CCOc1cccc(-c2ccc(CN3CCN(c4ccc(C(=O)NS(=O)(=O)C(C)(C)C)nn4)CC3)cc2C)c1 , its ASMS ratio (%) was 0.0

Field ASMS ratio (%) (entry CCOc1cncc(-c2ccc(C(=O)N3CCN(c4ccc(C(=O)NS(=O)(=O)CCC(F)(F)F)cc4)CC3)c3ccccc23)c1 ) reads 0.0

Documented ASMS ratio (%) of CCOc1cccc(C#Cc2ccccc2CN2CCN(c3ccc(C(=O)NS(=O)(=O)CCC(F)(F)F)nn3)CC2)c1 : 0.0

Query CCOc1cncc(-c2cc(CN3CCN(c4ccc(C(=O)NS(C)(=O)=O)cc4)CC3)cc(C(F)(F)F)c2)c1 yields ASMS ratio (%) of 0.0

// CCOc1cccc(C#Cc2ccccc2CN2CCN(c3ccc(C(=O)NS(=O)(=O)C(C)(C)C)nn3)CC2)c1 : ASMS ratio (%) value = 0.0

The compound CCOc1cncc(-c2cc(CN3CCN(c4ccc(C(=O)NS(=O)(=O)C(C)(C)C)cc4)CC3)cc(OCC)c2)c1 showed ASMS ratio (%) equal to 0.0
